- Test system: Au@PtNPs-nanobody probe
- assay summary: dc-ELISA based on Au@PtNPs-nanobody probe (direct competitive), incl. matrix effect evaluation
- Format: binding, alpaca
- condition description: cross-reaction = IC50(atrazine)/IC50(analog)
result type: CR% (Au@PtNPs-nanobody) (%)

>>> test_result("CCNc1nc(NC(C)C)nc(SC)n1")
3.55
>>> test_result("CCNc1nc(Cl)nc(NC(C)(C)C)n1")
10.9
>>> test_result("CCNc1nc(Cl)nc(NC(C)C)n1")
100
>>> test_result("CCNc1nc(Cl)nc(NCC)n1")
6.01
>>> test_result("Nc1nc(N)nc(Cl)n1")
3.42
